Value kind: IC50 (µM)
Entry rule: numbers only, all in µM.

Retrieve IC50 on Amine oxidase [flavin-containing] A (Rattus norvegicus, UniProt P21396); query "Cc1c(C)c2ccc(S(=O)(=O)Cc3ccccc3)cc2oc1=O"
Sequence (P21396 whole entry): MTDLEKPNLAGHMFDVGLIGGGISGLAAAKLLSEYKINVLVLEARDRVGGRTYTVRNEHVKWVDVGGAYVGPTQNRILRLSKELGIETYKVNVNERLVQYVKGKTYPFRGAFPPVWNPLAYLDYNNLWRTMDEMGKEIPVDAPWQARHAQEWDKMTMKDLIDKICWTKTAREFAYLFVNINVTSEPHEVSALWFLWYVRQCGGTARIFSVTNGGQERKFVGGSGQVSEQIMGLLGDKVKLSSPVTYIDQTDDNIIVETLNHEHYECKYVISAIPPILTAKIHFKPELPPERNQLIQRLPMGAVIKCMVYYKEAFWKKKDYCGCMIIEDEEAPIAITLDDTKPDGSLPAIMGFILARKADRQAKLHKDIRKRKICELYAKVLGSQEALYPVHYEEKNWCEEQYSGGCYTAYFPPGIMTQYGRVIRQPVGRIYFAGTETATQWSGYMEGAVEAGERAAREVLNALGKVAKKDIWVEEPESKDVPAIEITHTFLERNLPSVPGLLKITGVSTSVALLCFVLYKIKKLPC
18.6

Please tell me the measured IC50 for "O=C(OCc1ccc2ccc(=O)oc2c1)c1ccccc1" ; system: Amine oxidase [flavin-containing] A (Rattus norvegicus, UniProt P21396).
9.55

System Amine oxidase [flavin-containing] A (Rattus norvegicus, UniProt P21396). Read-out IC50. Item "Cc1c(C)c2ccc(OC[C@H](O)c3ccccc3)cc2oc1=O" . Report value.
3.24

Provide IC50, tested on Amine oxidase [flavin-containing] A (Rattus norvegicus, UniProt P21396), for "Cc1c(C)c2ccc(OCCOc3ccccc3)cc2oc1=O" .
10.2

Recall the reported IC50 of "Cc1c(C)c2ccc(OCS(=O)(=O)c3ccccc3)cc2oc1=O" when tested on Amine oxidase [flavin-containing] A (Rattus norvegicus, UniProt P21396).
2.82

Give reported IC50 for Cc1c(C)c2ccc(OCC(O)c3ccccc3)cc2oc1=O (racemic) (Amine oxidase [flavin-containing] A (Rattus norvegicus, UniProt P21396))
10

###

Value kind: log10(IC50) (log10 of the value in nM)
On a log10 scale: recorded IC50, unit nM.

For Amine oxidase [flavin-containing] B (Rattus norvegicus, UniProt P19643), give log10(IC50) of the listed compound: Cc1c(C)c2ccc(OCC(O)c3ccccc3)cc2oc1=O (racemic)
1.85

# lookup: Amine oxidase [flavin-containing] B (Rattus norvegicus, UniProt P19643) log10(IC50), key = "Cc1c(C)c2ccc(Oc3ccccc3)cc2oc1=O"
# Sequence (P19643 whole entry): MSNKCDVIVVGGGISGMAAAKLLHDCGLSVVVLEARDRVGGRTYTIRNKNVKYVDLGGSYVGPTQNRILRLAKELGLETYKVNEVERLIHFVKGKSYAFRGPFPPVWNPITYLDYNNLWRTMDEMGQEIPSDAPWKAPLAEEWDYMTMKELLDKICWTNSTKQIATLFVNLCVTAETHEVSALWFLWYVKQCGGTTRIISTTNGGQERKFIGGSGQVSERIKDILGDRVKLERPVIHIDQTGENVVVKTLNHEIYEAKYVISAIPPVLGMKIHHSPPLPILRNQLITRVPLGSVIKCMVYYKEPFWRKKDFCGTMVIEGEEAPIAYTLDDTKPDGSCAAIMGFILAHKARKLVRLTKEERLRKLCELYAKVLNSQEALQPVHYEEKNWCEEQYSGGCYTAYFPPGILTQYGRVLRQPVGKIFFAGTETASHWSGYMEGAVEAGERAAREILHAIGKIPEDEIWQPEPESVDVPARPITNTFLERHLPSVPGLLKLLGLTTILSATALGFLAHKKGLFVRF
3.51

Please look at "Cc1c(C)c2ccc(S(=O)(=O)Cc3ccccc3)cc2oc1=O" and tell me its recorded log10(IC50) on Amine oxidase [flavin-containing] B (Rattus norvegicus, UniProt P19643).
3.44

Provide log10(IC50), system Amine oxidase [flavin-containing] B (Rattus norvegicus, UniProt P19643), entry "Cc1c(C)c2ccc(OC[C@H](O)c3ccccc3)cc2oc1=O"
2.48

Send back Amine oxidase [flavin-containing] B (Rattus norvegicus, UniProt P19643) log10(IC50) of "Cc1c(C)c2ccc(SCc3ccccc3)cc2oc1=O" only.
1.60

Sourced from ChEMBL document CHEMBL1145327
